System: U-2946
Assay: NHL cell line viability/apoptosis 384-well flow cytometry assay
Assay type: cell-based
Details: U-2946 (DLBCL), 120 hours; read-out: IC50 (% Viable Cells)
measured.parameter: IC50 (nM)
Give bare numbers, in nM.

Bench note: what IC50 did O=C1CC[C@H](N2C(=O)c3cccc(NCc4ccc(CN5CC(N6CCOCC6)C5)cc4F)c3C2=O)C(=O)N1 [Compound 1] show?
4.6

---

Tested on: OCI-LY19
Assay: NHL cell line viability/apoptosis 384-well flow cytometry assay
Type: cell-based
Conditions: Homo sapiens; OCI-LY19 (DLBCL), 120 hours
measured.parameter: pEC50
Give bare numbers, as −log10 of the molar value.

Name the reported pEC50 value associated with the compound O=C1CC[C@H](N2C(=O)c3cccc(NCc4ccc(CN5CC(N6CCOCC6)C5)cc4F)c3C2=O)C(=O)N1 [Compound 1]
6.55
